Test: protein stability index of a GFP-peptide fusion (yeast GPS) (PSI 1-4); higher = more stable; sorted into four equal gates, so the index is relative within each strain
Conditions: doa10∆
Kindly supply the reported protein stability index values for the records listed here.
Keep it simple and answer with nothing but the number.

What does the record list as protein stability index for SNEEKEKIKMKLKQGQK [GAL11] ?
2.96

Which protein stability index value is on record for TNQIFQSRRYNLRRHSD [SIN4] ?
2.94

Any idea what protein stability index was measured for PAGTSLFGNNAGNTTTG [YGL172W/NUP49] ?
2.98

Look at this sequence and give its reported protein stability index. TKRQKHFAWLPTHIWNA [POP1]
2.03

Reported protein stability index for ITPSAMKLVPSIPPATI [RPB5] : what is it?
2.32

For the sequence shown here, DEIYIPINGNEAESQWY [CSI1] , give the reported protein stability index.
2.63

Look at this sequence and give its reported protein stability index. TLLRLNELLDLTESQTE [RPN5]
2.39

Find the recorded protein stability index belonging to GLSAREAVKQAAKIIYL [PRE10] and report it.
2.86

Please look up its protein stability index: TVDLALFGSPPFILEYD [YMR129W/POM152]
2.36

What does the record list as protein stability index for PISEKGLTLSTTNLDID [RPP1] ?
2.82

Item LWALLNFLLPDIFGDSE [ISW2] has what recorded protein stability index?
2.15

Can you share its protein stability index? I mean this sequence: LEEKLYQMQSNYESVFT [YIL149C/MLP2]
2.24

----------
Test: protein stability index of a GFP-peptide fusion (yeast GPS) (PSI 1-4); higher = more stable; sorted into four equal gates, so the index is relative within each strain
Settings: san1∆
Measurement Kind: protein stability index
Output spec: single numeric token, no unit.

protein stability index for NRIIKADDHASVQINVA [RPS21A] ?
2.99

Looking for the measured protein stability index of VIVELLPQSEWKAPSSI [DIS3] , can you help?
2.02

For the sequence shown here, ESPVDVQSQVDSSSVSE [FAS1] , give the reported protein stability index.
3.14

Data request, read-out protein stability index, for RSILQSLNPALQEKIST [SWI1]
2.72

Fill blank: measured protein stability index of the sequence FEKDLMAYFDENLNRNW [BRN1] is ____.
3.14

What measured protein stability index goes with VRSLLEVVQTGAKNIEI [PRE6] ?
3.06

Request the reported protein stability index associated with VDVELITSINVENDTFI [FAS2]
3.09

Fill in: protein stability index of LKRLAWQYIVIDEAHRI [ISW2] is ___
2.45

Reported protein stability index, sequence DTLNETNLKMKRKWSYV [RRP43] : ____
2.98

Return reported protein stability index; argument: SASDALKGRVVEVCLAD [RPS1A]
2.35

So what's the measured protein stability index for this one? DIQAMCTEAGLLALRER [RPT2]
3.33

Recorded protein stability index of LSLMLESPNYCNALIHI [SRB4] , please.
1.72

What value of protein stability index has been recorded for this entry: AIKKKEKLLRHVDSLIE [SRB7]
3.2

What value of measured protein stability index is listed for ERGHPKDNARIYQVPEK [POP1] ?
3

Which protein stability index value belongs to LYFEIIHGVLKNVDREV [FAS2] ?
2.63

Item SVKKAGASINSMKANTS [ARP7] has what recorded protein stability index?
2.42

Item under review: GTGKSQSGSNSGNNSKK [ROX3] . Reported protein stability index?
2.77

GET /values?readout=protein stability index&item= ENQPFHGIKDIPIGHVH [AAR2]
2.89

Please give the measured protein stability index for this sequence: TLVAQNLKQANNVAYGK [SMC4]
2.87

// returns reported protein stability index for input ETIKSLEDPYKYHYKEE [CSN9]
3.09
